- System: SBC3 cells
- experiment: CCK-8 cell viability/cytotoxicity assay, 72 h
- Type: cell-based, human
- measurementSetup: Homo sapiens, SBC-3; SBC3, CCK-8 72 h, fixed concentrations of Teri and Carbo; read-out: IC50, single treatment and combination treatment
attributeMeasured: pIC50
Give bare numbers, as −log10 of the molar value.

Q: Please tell me: pIC50 of C/C(O)=C(\C#N)C(=O)Nc1ccc(C(F)(F)F)cc1 [Teriflunomide, teriflunomide] , system SBC3 cells?
Ans: 5.37

----------
- Test system: SBC5 cells
- experiment: CCK-8 cell viability/cytotoxicity assay, 72 h
- Assay type: cell-based, human
- Protocol: The expression levels of DRP1 and DHODH in SCLC lines were compared with non-malignant BEAS 2B cells. […] Previous studies have shown that Leflu and its active metabolite Teri regulate mitochondrial morphology (9,10,26). […] In vitro cytotoxicity effect of Teri and Leflu was tested in a panel of SCLC cell lines. […] Isobologram and CI50 values were calculated using the Chou-Talalay method and IC50 to find synergism (FIG. 3B).
attributeMeasured: pIC50
Give bare numbers, as −log10 of the molar value.

Q: Please tell me: pIC50 of C/C(O)=C(\C#N)C(=O)Nc1ccc(C(F)(F)F)cc1 [Teriflunomide, teriflunomide] , system SBC5 cells?
Ans: 4.48

----------
- Test system: SBC3 cells
- experiment: CCK-8 cell viability/cytotoxicity assay, 72 h
- Assay type: cell-based, human
- measurementSetup: Homo sapiens, SBC-3; SBC3 cells, 72 h; read-out: IC50
attributeMeasured: IC50 (µM)
One number for each entry, in µM.

| molecule | observedResult |
| --- | --- |
| C/C(O)=C(\C#N)C(=O)Nc1ccc(C(F)(F)F)cc1 [Teriflunomide, teriflunomide] | 2 |

Q: Fill blank: measured IC50 of the molecule Cc1oncc1C(=O)Nc1ccc(C(F)(F)F)cc1 [Leflunomide, leflunomide] is ____.
Ans: 8.9
